# key: entry, value: normalized growth
# Protocol description: chemical genetic growth profiling, strain panel (AID 1159580);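 note: tested at 20 µM; growth read once vehicle control cultures reached saturation at 30 °C; 1 = growth at the plate median or of vehicle wells; lower values mean less growth of the strain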
# Conditions: S. cerevisiae deletion strains, growth OD, locus YER016W, strain bim1, hits give low values
Among all 5,500 compounds or so, about 2,000 (36%) were called active. Not shown: some 18% with an inconclusive outcome. The list shows a part of the results.
# print the numeric value only

Worked examples follow.
>>> recorded_result("COC1=C(OC)C(=O)C(C/C=C(\\C)CC/C=C(\\C)CC/C=C(\\C)CC/C=C(/C)CC/C=C(\\C)CC/C=C(\\C)CC/C=C(\\C)CC/C=C(\\C)CC/C=C(\\C)CCC=C(C)C)=C(C)C1=O")
0.978
>>> recorded_result("COc1ccc2cc([C@H](C)CO)ccc2c1")
1.01
>>> recorded_result("C[C@H]1CC2C([C@@H](O)C[C@@]3(C)C2CC[C@]3(O)C(=O)CO)[C@@]2(C)C=CC(=O)C=C12 (some centres not stated)")
1

Please supply the value of reported normalized growth for the item Cc1cc(O)c(C)c(O)c1C(=O)O 0.991

Please supply the value of reported normalized growth for the item CCN(CC)CCCC(C)Nc1c2ccc(Cl)cc2nc2ccc(OC)cc12 (configuration not stated) 1.02

Please supply the value of reported normalized growth for the item CCOC(=O)C(C)(C)Oc1ccc(Cl)cc1 0.984

Please supply the value of reported normalized growth for the item CC(Oc1ccccc1)C(=O)N[C@@H]1C(=O)N2[C@@H]1SC(C)(C)[C@@H]2C(=O)O (some centres not stated) 1

Please supply the value of reported normalized growth for the item CN1CCC(=C2c3ccccc3CC(=O)c3sccc32)CC1 1

Please supply the value of reported normalized growth for the item C=C1C2CC[C@H]3[C@]4(C)C[C@H](OC5OC(CO)C(OS(=O)(=O)O)C(OS(=O)(=O)O)C5OC(=O)CC(C)C)C[C@@H](C(=O)O)[C@H]4CC[C@]3(C2)[C@H]1O (some centres not stated) 1.01

Please supply the value of reported normalized growth for the item C=Cc1c2[nH]c(c1C)C=c1[nH]c(c(C)c1C=C)=CC1N=C(C=c3[nH]c(c(C)c3CCC(=O)O)=C2)C(CCC(=O)O)=C1C (configuration not stated) 1.02

Please supply the value of reported normalized growth for the item NC(=O)C(c1ccccc1)(c1ccccc1)C1CCN(CCc2ccc3c(c2)CCO3)C1 (configuration not stated) 1.04

Please supply the value of reported normalized growth for the item NCC1CCC(C(=O)O)CC1 (configuration not stated) 0.971

----------
# Protocol description: chemical genetic growth profiling, strain panel (AID 1159580);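 note: tested at 20 µM; growth read once vehicle control cultures reached saturation at 30 °C; 1 = growth at the plate median or of vehicle wells; lower values mean less growth of the strain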
# Conditions: S. cerevisiae deletion strains, growth OD, locus YER016W, strain bim1, hits give low values
The whole screen tested about 5,500 compounds, of which about 2,000 (36%) were called active. Not shown: some 18% with an inconclusive outcome. Some of the results follow.
# key: entry, value: normalized growth
# print the numeric value only

Worked examples follow.
>>> recorded_result("CC(CCc1ccccc1)NC(C)C(O)c1ccc(O)cc1 (stereo not given)")
0.999
>>> recorded_result("O=C(O)c1cc2ccccc2[nH]1")
1
>>> recorded_result("CN[C@@H](C)[C@@H](O)c1ccccc1")
0.984
>>> recorded_result("CCC(=O)O[C@H]1[C@H](O[C@@H]2[C@@H](C)[C@H](O[C@H]3C[C@@](C)(OC)[C@@H](O)[C@H](C)O3)[C@@H](C)C(=O)O[C@H](CC)[C@@](C)(O)[C@H](O)[C@@H](C)C(=O)[C@H](C)C[C@@]2(C)O)O[C@H](C)C[C@@H]1N(C)C")
0.965

# ---- query compound ----
Please supply the value of reported normalized growth for the item CNC(C)[C@H](O)c1ccccc1 (stereo not given in full) 1.03
